Biological target: Tyrosine-protein kinase BTK (Homo sapiens, UniProt Q06187)
Sequence (Q06187 whole entry): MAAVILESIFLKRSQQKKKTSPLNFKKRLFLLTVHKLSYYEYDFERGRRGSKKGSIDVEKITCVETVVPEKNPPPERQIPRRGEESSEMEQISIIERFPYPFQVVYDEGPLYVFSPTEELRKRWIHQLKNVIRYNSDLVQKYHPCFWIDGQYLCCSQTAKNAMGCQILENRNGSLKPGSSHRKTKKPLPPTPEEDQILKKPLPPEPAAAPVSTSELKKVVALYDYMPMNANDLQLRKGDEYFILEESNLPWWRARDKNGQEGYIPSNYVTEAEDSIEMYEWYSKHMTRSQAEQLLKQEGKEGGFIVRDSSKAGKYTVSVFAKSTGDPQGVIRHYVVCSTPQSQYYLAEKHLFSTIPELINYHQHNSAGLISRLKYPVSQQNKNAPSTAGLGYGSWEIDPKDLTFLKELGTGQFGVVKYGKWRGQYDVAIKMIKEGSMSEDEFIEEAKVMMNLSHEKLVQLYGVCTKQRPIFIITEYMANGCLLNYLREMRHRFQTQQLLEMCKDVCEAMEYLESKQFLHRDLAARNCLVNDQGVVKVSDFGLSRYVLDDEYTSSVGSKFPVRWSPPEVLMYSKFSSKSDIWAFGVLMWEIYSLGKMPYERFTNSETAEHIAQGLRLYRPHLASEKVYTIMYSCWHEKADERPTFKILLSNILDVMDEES
RECORDED ENDPOINT: IC50

Q. Given the compound CC(C)(C)c1nc(C(=O)NCc2cc(F)c(-c3ccnc(NC(=O)C4CC4)c3)cc2C(F)(F)F)no1 , what is its reported IC50?
A. < 1 nM
